From: PubChem BioAssay (NCI)

System: HS 578T breast
Assay: NCI-60 one-dose screen, 48 h (100 = growth as untreated, 0 = no growth, -100 = all killed)
Settings: 10 µM
The panel holds about 83,000 compounds, 20% with a hit somewhere; the sample as a whole holds those more often.
Catalogue of growth values
reported property: growth (%)

CC(C)CCN(CCCNc1c2c(nc3cc(Cl)ccc13)CCCC2)CCC(C)C = 76.1
O=NN(CCCl)C(=O)Nc1ccc(NC(=O)N(CCCl)N=O)cc1 = 104
COc1cccc2c1O/C(=C\c1ccc([N+](=O)[O-])s1)C2=O = 40.8
COc1cc2ccnc(C=O)c2cc1OC = 93.4
CCCCCCCC/C=C/CCCCCCCCC1=NCCN1CCO = 81
O=C(N/N=C/c1ccccc1O)c1ccccc1 = 82.9
NC1CCC(Nc2nc(NCc3ccc(-c4ccccc4O)nc3)c3ncn(C4CCCC4)c3n2)CC1 (stereo unspecified) = 8.94
C[n+]1c(/C=C/c2c[nH]c3ccccc23)ccc2ccccc21 = 103
CS(=O)(=O)Nc1ccc(Nc2c3ccccc3nc3cc(Cl)ccc23)cc1 = 81.8
O=C(Nc1ccc(Oc2ccc(Nc3nc4ccccc4s3)cc2)cc1)Nc1ccc(Cl)c(Cl)c1 = 61.9
CCOC(=O)c1ccc(NC(=O)Nc2nncs2)cc1 = 25.3

----------
Tested on: M14 melanoma
Experiment: NCI-60 one-dose screen, 48 h (100 = growth as untreated, 0 = no growth, -100 = all killed)
Details: 10 µM
This is part of a sample that, as a whole, favours compounds with a hit. Of some 83,000 tested, about 20% had one in any assay.
Would you please tag the item class 1 when its growth is 30% or above, and class 0 when it is below?

c1ccc(CC(NCCNC(Cc2ccccc2)c2ccccc2)c2ccccc2)cc1 (stereo unspecified) = class 0
COc1cc(CSc2nc3ccc(C)cc3c(=O)n2-c2ccccc2)cc(OC)c1OC = class 0
C#C[C@]1(O)CC[C@H]2[C@@H]3CC[C@H]4CC(F)(F)CC[C@]4(C)[C@H]3CC[C@@]21C = class 1
O=C(N/N=C/c1ccccc1O)c1ccccc1 = class 0
CCOC(=O)/C(C#N)=C(/C)C1CC1 = class 1
CC(C)(C)CC(C)(C)c1ccc(O)c(Cc2ccc(Cl)cc2Cl)c1 = class 0
CC(C)C(C)C(N)C(=O)O (stereo unspecified) = class 1
O=C(COc1ccc(Cl)cc1Cl)Oc1coc(CSc2nc3ccccc3s2)cc1=O = class 1
COc1nc2c(c(=O)[nH]1)C(c1ccc(Oc3ccnc4cc(Cl)ccc34)c(OC)c1)C=C(c1cc(OC)c(OC)c(OC)c1)N2 (stereo unspecified) = class 1
COc1ccc2nc(C)cc(Nc3ccc(Cl)cc3)c2c1 = class 1
CCc1c(C)[nH]c(=O)c(C(N)=O)c1C#N = class 1

----------
System: HOP-92 NSCLC
Test: NCI-60 one-dose screen, 48 h
Conditions: 10 µM
The panel holds about 83,000 compounds, 20% with a hit somewhere; the sample as a whole holds those more often. Activity calls are given as the source filed them. The calls were made as follows: active = growth percent below 10; inactive = the rest.
Possible outcomes: TRUE = active, FALSE = inactive

O=C(O)c1ccc(CNc2ccc(C(=O)CCl)cc2)cc1 = FALSE
Fc1cc(-c2ncc(-c3cc(F)c(F)c(F)c3)c(NC3CCCCCC3)n2)cc(F)c1F = FALSE
Cc1cc(=O)oc2cc(OCc3cn(CC(O)CO)nn3)ccc12 (configuration not stated) = FALSE
Cc1cc2cc3c(=O)[nH]c(=O)cc-3n(CC(O)C(O)C(O)CO)c2cc1C (configuration not stated) = FALSE
Nc1ncc(-c2ccc(C(F)(F)F)cc2)c(NC2CCCCCC2)n1 = TRUE
O=C(Nc1ccc(OCc2nnc(-c3ccccc3)o2)c(F)c1)Nc1ccc(Cl)c(Cl)c1 = FALSE
CCCCCCCCCCCCCC[n+]1ccccc1 = TRUE
COc1cc(OC)cc(N2CCN(C(=O)Nc3nc4cc(F)ccc4nc3OC)CC2)c1 = FALSE
C/C(=N\NC(=S)N1CCCC1)c1ccccn1 = FALSE
COc1cc(NS(C)(=O)=O)ccc1Nc1c2ccc(Cl)cc2nc2c(OC)cccc12 = FALSE
CC(C)OCc1cc(CN2CCN(c3cccc(Cl)c3)CC2)c(O)c2ncccc12 = TRUE
C=CCOc1ccc2c(c1)CC=C1[C@@H]2CC[C@]2(C)C(=O)/C(=N/O)C[C@@H]12 = FALSE
C[C@]12CC[C@H]3[C@@H](CCC4=CC(=O)CC[C@@]43C)[C@@H]1CC[C@@H]2c1csc(N)n1 = FALSE
COc1ccc(C2C=C(c3ccc(Cl)c(Cl)c3)N=C3SC(C)=CN32)cc1OC (configuration not stated) = FALSE
CC(=O)CS(C)(=O)=O = FALSE
CN1CCN(c2nc(-c3cccnc3)nc3sc4c(c23)CCCCCC4)CC1 = TRUE
COc1ccc(C(=O)/C=C/c2cc(-c3ccc(OC)c(OC)c3)n[nH]2)cc1OC = TRUE
CS(=O)(=O)Nc1ccc(Nc2c3ccccc3nc3cc(Cl)ccc23)cc1 = TRUE
Oc1[nH]c2ccccc2c1/C=c1/cc2c(c(-c3ccc(C(F)(F)F)cc3)n1)=Nc1ccccc1-2 = FALSE
Cn1cnc([N+](=O)[O-])c1Sc1nnc(-c2ccccc2)c(-c2ccccc2)n1 = FALSE
O=C(c1ccccc1)C(Nc1ccccc1)c1ccccc1 (configuration not stated) = FALSE
O=C(OCC1OC(n2cc(C(F)(F)F)c(=O)[nH]c2=O)CC1OC(=O)c1ccc([N+](=O)[O-])cc1)c1ccc([N+](=O)[O-])cc1 (configuration not stated) = FALSE
C[C@]12CC[C@H]3[C@@H](CC=C4C[C@@H](O)CC[C@@]43C)[C@@H]1CC[C@@H]2C(=O)C/C=N/O = FALSE
Clc1ccc(-c2nc(-c3cccs3)cn3ccnc23)cc1 = FALSE
O=C(N/N=c1/ccoc2cccnc12)N1CCN(c2ncccn2)CC1 = FALSE
COc1ccc(-c2cc(/C=C3\C(=O)Nc4cc(Cl)ccc43)[nH]n2)cc1OC = FALSE
CC(=O)Nc1nc(C)c(C(=O)N/N=C/c2cccn2C)s1 = FALSE
CCCCCCCC/C=C/CCCCCCCCC1=NCCN1CCO = TRUE
O=c1oc2c3ccc4cnccc4c3[nH]c2c2ccccc12 = FALSE
Cc1nnc2c3nnc(-c4ccc(Cl)cc4)n3c3ccccc3n12 = FALSE
CCCCOCC(=O)NC(NP(=O)(N(C)C)N(C)C)C(Cl)(Cl)Cl (configuration not stated) = FALSE
CC(C)OP(=O)(O)c1ncc(-c2ccc(C(F)(F)F)cc2)c(NC2CCCCCC2)n1 = FALSE
COc1c(-c2c3sc(=O)[nH]c3nc3c2c(=O)[nH]n3C(C)C)cc2c(c1OC)OCO2 = FALSE
COc1cc(CSc2nc3ccc(C)cc3c(=O)n2-c2ccccc2)cc(OC)c1OC = FALSE
COc1ccc(-c2nnc(N3CCN(C(=O)CN4CCN(c5ccc(Cl)cc5)CC4)CC3)nc2-c2ccc(OC)cc2)cc1 = FALSE
CCn1nc(-c2ccc(C(=O)OC)cc2)nc2c(=O)n(C)c(=O)nc1-2 = TRUE
COc1ccc(/C(=C/c2cc(OC)c(OC)cc2[N+](=O)[O-])C(=O)O)cc1 = FALSE
CC(=O)OCC(COC(C)=O)(COC(C)=O)COC(C)=O = FALSE
COc1ccc(-c2nnc(COc3ccc(NC(=O)Nc4cccc(C(F)(F)F)c4)cc3F)o2)cc1 = FALSE
CCCCCCCCCCCCCC[n+]1ccc(C)cc1 = TRUE
COc1cc(CSc2nc3ccc(C)cc3c(=O)n2Cc2ccccc2)cc(OC)c1OC = FALSE
N#CC1C=Cc2c(ccc3ccccc23)N1C(=O)c1ccccc1 (configuration not stated) = FALSE

----------
Tested on: HOP-62 NSCLC
Test: NCI-60 one-dose screen, 48 h
Conditions: 10 µM
About 83,000 compounds went through this panel and 20% of them were active in at least one assay; those are over-represented in the sample as a whole. Active and inactive are the calls of the source. The calls were made as follows: active = growth percent below 10; inactive = the rest.
Possible outcomes: active, inactive

c1ccc(C2CCCCC2)c(OCCCCCN2CCNCC2)c1 = inactive
O=NN(CC(=O)N/N=C/C=C\c1ccccc1)CC(=O)N/N=C/C=C/c1ccccc1 = inactive
CC(C)(C)CC(C)(C)c1ccc(O)c(Cc2ccc(Cl)cc2Cl)c1 = active
O=C(Nc1cccc(Cl)c1)Nc1cc2ncncc2cc1OCc1cccc(F)c1 = active
CCOC(=O)c1cc2c(n1Cc1cc(OC)cc(OC)c1)-c1oncc1CC2 = inactive
CCCCOCC(=O)NC(NP(=O)(N(C)C)N(C)C)C(Cl)(Cl)Cl (stereo unspecified) = inactive

----------
System: BT-549 breast
Test: NCI-60 one-dose screen, 48 h
Details: 10 µM
This is part of a sample that, as a whole, favours compounds with a hit. Of some 83,000 tested, about 20% had one in any assay. Activity calls are given as the source filed them. The calls were made as follows: active = growth percent below 10; inactive = the rest.
Possible outcomes: active, inactive

CCCCNC(=O)Oc1ccc(/C(=C(\C)c2ccc(OC)cc2)c2ccc(OCCN3CCCCC3)cc2)cc1 = inactive
O/N=C1\CCC2CCCCC2C1 (stereo not drawn) = inactive
COc1ccc2oc(=O)cc(C(c3ccc[nH]3)c3ccc[nH]3)c2c1 = active
C[n+]1c(/C=C/c2c[nH]c3ccccc23)ccc2ccccc21 = inactive
CCOC(=O)c1cc2c(n1Cc1cccc(OC)c1)-c1oncc1CC2 = inactive
Cc1cnc(C=O)c2cccc([N+](=O)[O-])c12 = inactive
CC1=CSC2=NC(c3ccc(Cl)c(Cl)c3)=CC(c3ccc(Cl)cc3)N12 (stereo not drawn) = active
Nc1ccc2c(c1)Cc1cc(N)c(Cl)cc1-2 = inactive
COc1ccc(-c2[nH]ncc2-c2cc(OC)c(OC)c(OC)c2)cc1 = active
CS(=O)(=O)Nc1ccc(OCc2nnc(-c3ccc(Cl)cc3)o2)c(F)c1 = inactive
Cc1ccc([P+](Cc2ccc([N+](=O)[O-])cc2)(c2ccc(C)cc2)c2ccc(C)cc2)cc1 = inactive
Cc1ccc(NS(=O)(=O)c2ccccc2)c(NS(=O)(=O)c2ccccc2)c1 = inactive
COc1ccc(-c2oncc2-c2cc(OC)c3c(c2)OCO3)cc1 = active
O=C1/C(=C/c2ccc(O)cc2)Oc2ccc(Cl)cc21 = inactive
C#CCn1c(-c2cccc(OCCCCl)c2)nc2c1c(=O)n(C)c(=O)n2C = inactive
Cc1[nH]nc2c(=S)[nH]c(=O)[nH]c12 = inactive
O=C(NCCc1nccs1)c1cnc2c(S)cccc2c1 = inactive
CCCCOCCOCCOCc1cc2c(cc1Br)OCO2 = inactive
O=C(/C=C/c1nnc2n(Cc3ccccc3)c(=O)c3c4c(sc3n12)CCCC4)c1ccccc1 = inactive
Nc1nc(SCC#CCCl)c2[nH]cnc2n1 = inactive
CS(=O)(=O)Nc1ccc(Nc2c3ccccc3nc3cc(Cl)ccc23)cc1 = inactive
COc1ccc(-n2nnc3c(sc4ccccc43)c2=O)cc1 = inactive
N#C/C(=C\N1C(=O)/C(=C/c2cccc([N+](=O)[O-])c2)SC1=S)c1nc2ccccc2s1 = inactive
